Reported values of apparent KD of K4 kissing-loop reporter for individual entries
Tested on: K4 kissing-loop RNA reporter;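 further: bound reporter read as fluorescence of individual clusters on recovered sequencing chips by microscopy, with normalized cluster intensities fitted with a binding model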
Assay: apparent KD of K4 kissing-loop reporter; higher = weaker reporter binding
Details: Eterna round: R107; input ligand: theophylline 20 uM
# value in nM; strip the unit string

INSERT INTO results (sequence_chain, quantity_name, reported_value) VALUES
  ('GGUGACGACCAGAGGUGAUGUAUAGUAUCGCGAGGACCGGUACGGCCGCCACUCGUGAAGAGAAAGGAGUGAUGUUCCGUAAUGG [Kazoo C9]', 'apparent KD of K4 kissing-loop reporter', 289),
  ('UAAUUUAUGUCUUUAAUUUUAUAAUCAGAUACCAGUGAUUUAUGACACCCUUGGCAGCUGUAUUGAGUGAUGUUCUUAUACUUAA [JR_Nu_ExcTheophyA_Sub022]', 'apparent KD of K4 kissing-loop reporter', 236);

Kindly consider the entry below.
Query AACUGUCAAGGCCAACAUUACUGAGGUGAUACCAGCAUCGAAAGAUGCCCUUGGCAGCACCAACUUGCAGUGAUGUUGCAAGUAA [BrourdMod 13 - Jieux - Exclusion - Theophylline A] yields apparent KD of K4 kissing-loop reporter of 307
